Origin of values: the supplement of paper PMC10567573

B1: FUNDC2 (parent)
chain: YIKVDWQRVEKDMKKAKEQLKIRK

# Variants of: B1
# protocol-details: protein stability index of a GFP-peptide fusion (GPS, HEK-293T) (PSI 1-6); higher = more stable;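 further: lentivirally expressed fusions sorted by FACS into six bins by GFP to DsRed ratio, PSI derived from sequencing read proportions per bin multiplied by bin number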
# assay-conditions: c terminus: a fixed tail appended
readout-label: protein stability index
No unit in the answer, only the number.

These recorded examples may help you get a feel for the data.
{"sequence-record": "YIKVEWQRVEKDMKKAKEQLKIRK [D5E]", "protein stability index": 1.52}
{"sequence-record": "YIKVDWQRVEKDMKKASEQLKIRK [K17S]", "protein stability index": 2.62}
{"sequence-record": "YIKVDWQRVVKDMKKAKEQLKIRK [E10V]", "protein stability index": 1.52}
{"sequence-record": "YIKVDWQRVEKDMKKAKEQLKICK [R23C]", "protein stability index": 1.57}
{"sequence-record": "YIKVDWQRVEKDMKKAKEQLKIRY [K24Y]", "protein stability index": 1.38}

Ask: Data request, read-out protein stability index, for YIKVDWQRVLKDMKKAKEQLKIRK [E10L]
Result: 1.65

Ask: Data request, read-out protein stability index, for YIKVDWQRSEKDMKKAKEQLKIRK [V9S]
Result: 1.91

Ask: Data request, read-out protein stability index, for YIKVDWQRVEKDMKKAKEQLKKRK [I22K]
Result: 2.25

Ask: Data request, read-out protein stability index, for YIKTDWQRVEKDMKKAKEQLKIRK [V4T]
Result: 1.71
